Source listed as patent US20250136595A1.

log10(GI50) values for the compounds below.
- Study system: Ba/F3 ERBB2 YVMA (Homo sapiens, UniProt P04626, DUP772-775, cells depend on it)
- Sequence (P04626 with tags, fused parts or gaps DUP772-775): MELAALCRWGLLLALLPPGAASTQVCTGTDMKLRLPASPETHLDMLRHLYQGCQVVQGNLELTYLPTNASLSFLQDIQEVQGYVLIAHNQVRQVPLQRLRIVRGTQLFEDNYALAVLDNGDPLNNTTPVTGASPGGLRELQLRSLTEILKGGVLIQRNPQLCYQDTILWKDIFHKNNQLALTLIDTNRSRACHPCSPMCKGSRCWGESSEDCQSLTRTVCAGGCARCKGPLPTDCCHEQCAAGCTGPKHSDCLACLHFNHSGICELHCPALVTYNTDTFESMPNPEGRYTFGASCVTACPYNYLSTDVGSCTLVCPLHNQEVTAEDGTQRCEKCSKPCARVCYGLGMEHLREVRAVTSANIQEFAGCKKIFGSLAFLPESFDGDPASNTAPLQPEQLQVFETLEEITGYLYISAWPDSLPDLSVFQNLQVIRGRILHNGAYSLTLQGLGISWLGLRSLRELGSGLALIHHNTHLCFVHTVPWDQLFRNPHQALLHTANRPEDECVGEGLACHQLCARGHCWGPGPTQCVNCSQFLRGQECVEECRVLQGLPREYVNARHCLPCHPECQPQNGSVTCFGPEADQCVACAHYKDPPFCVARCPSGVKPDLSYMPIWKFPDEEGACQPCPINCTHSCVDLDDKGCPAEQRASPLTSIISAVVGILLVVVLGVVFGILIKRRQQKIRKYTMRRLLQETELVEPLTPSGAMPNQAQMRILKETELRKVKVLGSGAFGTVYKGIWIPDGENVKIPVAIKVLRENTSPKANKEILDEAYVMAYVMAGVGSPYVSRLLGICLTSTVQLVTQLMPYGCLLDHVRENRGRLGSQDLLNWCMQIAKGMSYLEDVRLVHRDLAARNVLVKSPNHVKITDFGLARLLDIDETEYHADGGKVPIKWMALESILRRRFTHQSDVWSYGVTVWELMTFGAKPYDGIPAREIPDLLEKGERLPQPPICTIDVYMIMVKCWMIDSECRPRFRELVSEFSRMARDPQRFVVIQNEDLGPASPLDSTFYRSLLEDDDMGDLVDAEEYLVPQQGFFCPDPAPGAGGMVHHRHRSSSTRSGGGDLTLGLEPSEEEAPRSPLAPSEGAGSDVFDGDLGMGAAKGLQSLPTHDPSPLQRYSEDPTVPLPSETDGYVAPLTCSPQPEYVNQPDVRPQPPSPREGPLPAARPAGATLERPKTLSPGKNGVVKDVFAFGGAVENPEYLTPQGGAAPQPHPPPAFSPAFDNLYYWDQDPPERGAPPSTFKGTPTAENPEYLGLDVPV
- Method notes: Cell viability assay (CellTiter Glo) in Ba/F3 cells engineered to express ERBB2 YVMA
- Format: cell-based, mouse
- Condition label: Ba/F3 cells expressing human ERBB2 YVMA mutant, 72 hours, % viability, read-out: Ba/F3 ERBB2 YVMA IC50
Measured attribute: log10(GI50) (log10 of the value in nM)

{"Compound": "Cc1cc(Nc2ncnc3ccc(N4CCN(C(=O)/C=C/CN(C)C)C[C@@H]4C)nc23)ccc1Cc1ccc2c(c1)ncn2C [Compound 126]", "log10(GI50)": 1.47}
{"Compound": "CC#CC(=O)N1CC2CC1CN2c1ccc2ncnc(Nc3ccc(Oc4ccn5ncnc5c4)c(C)c3)c2n1 (stereo not shown) [Compound 30]", "log10(GI50)": 1.33}
{"Compound": "C=CC(=O)N1CCC2(CC1)CN(c1ccc3ncnc(Nc4ccc(Oc5ccn6ncnc6c5)c(C)c4)c3n1)C2 [Compound 19]", "log10(GI50)": 2.25}
{"Compound": "C=CC(=O)N1CCN(c2ccc3ncnc(Nc4ccc(Oc5ccn6ncnc6c5)c(C)c4)c3c2F)C(C)C1 (stereo not shown) [Compound 114]", "log10(GI50)": 1.73}
{"Compound": "Cc1cc(Nc2ncnc3ccc(N4CCN(C(=O)/C=C/CN(C)C)[C@H](C)C4)nc23)ccc1Oc1ccc2c(c1)ncn2C [Compound 80]", "log10(GI50)": 1.05}
{"Compound": "C=CC(=O)N1CCN(c2ccc3ncnc(Nc4ccc(Oc5ccn6ncnc6c5)c(C)c4)c3n2)CC12CC2 [Compound 118]", "log10(GI50)": 0.89}
{"Compound": "CC#CC(=O)N1CCN(c2ncc3ncnc(Nc4ccc(Oc5ccc6c(c5)ncn6C)c(C)c4)c3n2)C[C@H]1C [Compound 72]", "log10(GI50)": 1.00}
{"Compound": "C=CC(=O)N1CCN(c2cc3c(Nc4ccc(Cc5ccn6ncnc6c5)c(C)c4)ncnc3cn2)[C@@H](C)C1 [Compound 85]", "log10(GI50)": 1.84}
{"Compound": "CC#CC(=O)N1C2CCC1CN(c1ccc3ncnc(Nc4ccc(Oc5ccn6ncnc6c5)c(C)c4)c3n1)C2 [Compound 27]", "log10(GI50)": 1.44}
{"Compound": "C=CC(=O)N1CCN(c2cc3c(Nc4ccc(OC5CCN(C(=O)C6CCCC6)CC5)c(C)c4)ncnc3cn2)CC1 [Compound 2]", "log10(GI50)": 1.31}
{"Compound": "C=CC(=O)N1[C@H](C)CN(c2ccc3ncnc(Nc4ccc(Oc5ccn6ncnc6c5)c(C)c4)c3n2)C[C@@H]1C [Compound 60]", "log10(GI50)": 1.16}
{"Compound": "C=CC(=O)N1CCCN(c2ccc3ncnc(Nc4ccc(Oc5ccn6ncnc6c5)c(C)c4)c3n2)CC1 [Compound 16]", "log10(GI50)": 2.00}
{"Compound": "C=CC(=O)N1CCN(c2ncc3ncnc(Nc4ccc(Oc5ccn6ncnc6c5)c(C)c4)c3n2)[C@@H](C)C1 [Compound 70]", "log10(GI50)": 1.00}
{"Compound": "C=CC(=O)N1CCC[C@H](Nc2ccc3ncnc(Nc4ccc(Oc5ccn6ncnc6c5)c(C)c4)c3n2)C1 [Compound 41]", "log10(GI50)": 1.29}
{"Compound": "C=CC(=O)N1CCN(c2ccc3ncnc(Nc4ccc(Oc5ccc6c(c5)ncn6C)c(C)c4)c3n2)C[C@@H]1C [Compound 47]", "log10(GI50)": 1.15}
{"Compound": "C=CC(=O)N1CCN(c2ncc3ncnc(Nc4ccc(Oc5ccc6c(c5)ncn6C)c(C)c4)c3n2)[C@@H](C)C1 [Compound 76]", "log10(GI50)": 1.00}
{"Compound": "C=CC(=O)N1CCN(c2ccc3ncnc(Nc4ccc(Oc5ccn6ncnc6c5)c(C)c4)c3c2F)C[C@H]1C [Compound 63]", "log10(GI50)": 1.02}
{"Compound": "C=CC(=O)N1CCN(c2ccc3ncnc(Nc4ccc(Oc5ccc6c(c5)ncn6C)c(C)c4)c3c2)C[C@H]1C [Compound 58]", "log10(GI50)": 1.38}
{"Compound": "C=CC(=O)N1CCN(c2cc3c(Nc4ccc(O[C@@H]5CCCOC5)c(C)c4)ncnc3cn2)CC1 [Compound 100]", "log10(GI50)": 1.99}
{"Compound": "C=CC(=O)N1CCN(c2cc3c(Nc4ccc(Oc5ccc6c(c5)ncn6C)c(C)c4)ncnc3cn2)C[C@H]1C [Compound 59]", "log10(GI50)": 1.44}
{"Compound": "C=CC(=O)N1CCC2(C1)CN(c1ccc3ncnc(Nc4ccc(Oc5ccn6ncnc6c5)c(C)c4)c3n1)C2 [Compound 21]", "log10(GI50)": 0.99}
{"Compound": "C=CC(=O)N1CCN(c2cc3c(Nc4ccc(OC5CCN(C(=O)CC(C)(C)C)CC5)c(C)c4)ncnc3cn2)CC1 [Compound 3]", "log10(GI50)": 1.60}
{"Compound": "C=CC(=O)N1CCN(c2ccc3ncnc(Nc4ccc(CN5CCn6ncnc6C5)c(C)c4)c3n2)CC1 [Compound 34]", "log10(GI50)": 2.41}
{"Compound": "C=CC(=O)N1CCN(c2cc3c(Nc4ccc(Cc5ccn6ncnc6c5)c(C)c4)ncnc3cn2)CC1 [Compound 103]", "log10(GI50)": 1.40}
{"Compound": "Cc1cc(Nc2ncnc3ccc(N4CCN(C(=O)/C=C/CN(C)C)[C@H](C)C4)nc23)ccc1Cc1ccn2ncnc2c1 [Compound 117]", "log10(GI50)": 1.40}
{"Compound": "C=CC(=O)N1CCN(c2ccc3ncnc(Nc4ccc(O[C@@H]5CCCOC5)c(C)c4)c3c2)CC1 [Compound 102]", "log10(GI50)": 1.64}
{"Compound": "C=CC(=O)N1CCN(c2ccc3ncnc(Nc4ccc(Cc5ccc6c(c5)ncn6C)c(C)c4)c3c2)[C@@H](C)C1 [Compound 125]", "log10(GI50)": 1.79}
